# Tgt: E1p-ec (Escherichia coli)
# Sequence (P0AFG8 2-887 limits assumed): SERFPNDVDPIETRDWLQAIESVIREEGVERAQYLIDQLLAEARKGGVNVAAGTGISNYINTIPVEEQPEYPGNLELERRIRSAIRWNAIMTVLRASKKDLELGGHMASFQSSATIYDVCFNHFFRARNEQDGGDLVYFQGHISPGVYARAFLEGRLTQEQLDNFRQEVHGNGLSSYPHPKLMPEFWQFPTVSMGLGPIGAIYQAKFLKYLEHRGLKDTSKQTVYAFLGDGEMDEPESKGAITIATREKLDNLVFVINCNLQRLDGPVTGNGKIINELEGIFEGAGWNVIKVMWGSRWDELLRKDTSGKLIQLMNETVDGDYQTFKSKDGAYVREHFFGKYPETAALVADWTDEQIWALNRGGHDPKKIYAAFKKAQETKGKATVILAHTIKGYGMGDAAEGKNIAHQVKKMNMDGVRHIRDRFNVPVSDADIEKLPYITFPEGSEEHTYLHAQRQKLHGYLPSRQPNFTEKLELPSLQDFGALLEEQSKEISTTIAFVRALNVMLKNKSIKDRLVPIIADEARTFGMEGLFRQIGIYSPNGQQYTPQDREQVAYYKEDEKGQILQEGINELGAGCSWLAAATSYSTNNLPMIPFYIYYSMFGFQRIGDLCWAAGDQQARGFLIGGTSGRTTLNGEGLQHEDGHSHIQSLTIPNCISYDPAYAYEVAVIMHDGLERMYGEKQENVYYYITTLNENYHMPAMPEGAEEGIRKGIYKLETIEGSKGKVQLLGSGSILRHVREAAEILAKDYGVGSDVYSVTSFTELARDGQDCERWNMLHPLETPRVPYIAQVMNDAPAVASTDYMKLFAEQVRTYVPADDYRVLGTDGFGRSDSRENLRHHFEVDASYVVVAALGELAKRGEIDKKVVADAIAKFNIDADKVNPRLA
# Experimental protocol: CD titration of E1p-ec by acetylphosphinate
# Type: binding
# Condition set: read-out: Kd,AcPhi; E1p-ec complexed with 0.20 mM MeOThDP; CD303
pKd: −log10 of the molar value.
Measured parameter: pKd

>>> df
                                   compound                        tgt  measured_parameter  result
0  CC(=O)[PH](=O)[O-].[Na+] [AcPhi, acetylphosphinic acid sodium salt]  E1p-ec (Escherichia coli)                 pKd    5.73

====

# Tgt: DXPS (Escherichia coli)
# Sequence (P77488 whole entry): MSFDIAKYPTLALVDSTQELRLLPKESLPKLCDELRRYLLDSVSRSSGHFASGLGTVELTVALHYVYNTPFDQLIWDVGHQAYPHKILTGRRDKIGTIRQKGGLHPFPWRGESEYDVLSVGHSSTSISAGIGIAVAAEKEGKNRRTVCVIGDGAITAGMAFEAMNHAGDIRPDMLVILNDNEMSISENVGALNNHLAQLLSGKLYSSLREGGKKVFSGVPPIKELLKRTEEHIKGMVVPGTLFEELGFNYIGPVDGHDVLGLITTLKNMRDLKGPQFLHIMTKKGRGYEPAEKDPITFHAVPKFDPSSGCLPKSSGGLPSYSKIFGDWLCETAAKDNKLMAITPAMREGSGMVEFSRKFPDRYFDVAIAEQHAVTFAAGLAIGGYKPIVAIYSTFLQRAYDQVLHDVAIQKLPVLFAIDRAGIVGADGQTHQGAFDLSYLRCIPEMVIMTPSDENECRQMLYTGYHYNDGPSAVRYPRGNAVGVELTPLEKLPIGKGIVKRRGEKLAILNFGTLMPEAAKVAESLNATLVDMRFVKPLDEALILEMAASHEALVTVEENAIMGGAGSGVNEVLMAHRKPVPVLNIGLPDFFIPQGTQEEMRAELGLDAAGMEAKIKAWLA
# Experimental protocol: CD titration of apo-DXPS with ThTTDP
# Format: binding
# Condition set: read-out: Kd,ThTTDP; CD titration, CD331; no MeOThDP
Measured parameter: Kd (nM)

>>> print(df.to_string())
                                   molecule                      tgt  measured_parameter  result
0  Cc1ncc(Cn2c(C)c(CCOP(=O)(O)OP(=O)(O)O)sc2=S)c(N)n1 [ThTTDP, Thiamin 2-thiothiazolone diphosphate]  DXPS (Escherichia coli)                  Kd     390
